Listing of entries alongside the reported pIC50.
# Tested on: P. falciparum 3D7-infected erythrocytes
# method.description: Plasmodium falciparum growth inhibition assay (SYBR Green I, flow cytometry), drug-sensitive strain
# Type: cell-based
# condition.notes: Plasmodium falciparum, 3D7, Erythrocyte; 48 h incubation; read-out: IC50 (Pf3D7)
pIC50: −log10 of the molar value. Counter-ions that a name gives are not always drawn.

Below, each entry is followed by its recorded pIC50 result.
>>> test_result("CCc1nc(N)nc(N)c1OCCCOc1cc(OC)ccc1/C=C/C(=O)NO [14·HCl]")
"> 10.00"
>>> test_result("CCc1nc(N)nc(N)c1OCCCOc1ccc(/C=C/C(=O)NO)cc1 [20·HCl]")
"> 9.70"
>>> test_result("CCc1nc(N)nc(N)c1OCCCOc1cccc(C(=O)NOCc2ccc(OC(C)=O)cc2)c1")
"> 9.70"
>>> test_result("CCc1nc(N)nc(N)c1OCCCOc1ccccc1/C=C/C(=O)NO.Cl [13·HCl]")
"> 10.00"
>>> test_result("CCc1nc(N)nc(N)c1OCCCOc1ccccc1CCC(=O)NO.Cl [1·HCl]")
"> 9.70"

Reported pIC50 for CCc1nc(N)nc(N)c1OCCCOc1cc(C(=O)NO)ccc1Cl : what is it?
> 9.70

Reported pIC50 for CCc1nc(N)nc(N)c1OCCCOc1cc(OC)ccc1CCC(=O)NO [4·HCl] : what is it?
> 9.70

Reported pIC50 for CCc1nc(N)nc(N)c1OCCCOc1cc(Cl)ccc1/C=C/C(=O)NO : what is it?
> 10.00

Reported pIC50 for CCc1nc(N)nc(N)c1OCCCOc1ccccc1/C=C/C(=O)NOCc1ccc(OC(C)=O)cc1 : what is it?
> 10.00

Reported pIC50 for CCc1nc(N)nc(N)c1OCCCOc1cccc(/C=C/C(=O)NO)c1 [19·HCl] : what is it?
> 9.70
